// provenance: a melting point compilation (Tetko et al.; mined from patent text by program, amines drawn as free bases though some values may be those of a salt)

melting point overview

CCc1ccc(NN)c(Cl)c1 ... 55 to 57 °C
CC(C)c1cccc(C(C)C)c1NC(=O)[C@H](C)NC(c1ccccc1)c1ccccc1 ... 134 to 138 °C
COc1ccc(C(OCC2OC(n3cnc4c(=O)[nH]c(NC(=O)Cc5ccc(Cl)cc5)nc43)CC2O)(c2ccccc2)c2ccc(OC)cc2)cc1 (centres undefined) ... 150 to 155 °C
Nc1cccc(Oc2ccc(C(=O)c3ccc(C#Cc4ccccc4)cc3)cc2)c1 ... 137 to 139 °C
CSC(=N[N+](=O)[O-])N(C)C(C)=O ... 40 to 41 °C
N#Cc1cccc(-c2ccc3c(c2)NC(=O)CO3)c1 ... 242 °C

(Q) Report melting point, nothing else, for this compound: `COc1cc2c(c3c1OC(C)(C)C3)C(c1ccn(Cc3ccc(C(=O)NCCO)cc3)c(=O)c1)=NC(C)(C)C2`
(A) 220 to 222 °C

(Q) Report melting point, nothing else, for this compound: CC(OC(C)c1ncn2c1CN(C)C(=O)c1cc(Cl)ccc1-2)c1ncn2c1CN(C)C(=O)c1cc(Cl)ccc1-2 (centres undefined)
(A) 193 to 194 °C

(Q) Report melting point, nothing else, for this compound: COc1ccnc(C(C)Sc2nc3cc4c(cc3[nH]2)OC(F)(F)O4)c1 (centres undefined)
(A) 173 to 175 °C
